- systemName: RBM39 (Homo sapiens, UniProt Q14498+Q66K64)
- Construct: endogenous in cells; host or cells: HCT116
- runDescription: Western blot assay for degradation of RBM39 in HCT116 cells
- Assay type: cell-based
- recordedConditions: HCT116, 4 h
The following molecules are listed with their measured DC50 values.

See these solved cases before continuing.
- molecule: "N#Cc1cccc(S(=O)(=O)Nc2ccc(Cl)c3c(Cl)c[nH]c23)c1"
  DC50: "< 100 nM"
- molecule: "O=S(=O)(Nc1ccc(Cl)c2c(Cl)c[nH]c12)c1ccc(S(=O)(=O)N2CCNCC2)cc1"
  DC50: "< 1000 nM"

Request the reported DC50 associated with Nc1ccc(S(=O)(=O)Nc2cnc3c(Cl)cccc3n2)cc1 [CQS, cloroquinoxaline sulfonamide, reference compound]
< 100 nM

====

- systemName: DCAF15-RBM39 ternary complex (Homo sapiens, UniProt Q14498+Q66K64)
- Construct: (RRM2)
- Sequence (Q66K64 whole entry): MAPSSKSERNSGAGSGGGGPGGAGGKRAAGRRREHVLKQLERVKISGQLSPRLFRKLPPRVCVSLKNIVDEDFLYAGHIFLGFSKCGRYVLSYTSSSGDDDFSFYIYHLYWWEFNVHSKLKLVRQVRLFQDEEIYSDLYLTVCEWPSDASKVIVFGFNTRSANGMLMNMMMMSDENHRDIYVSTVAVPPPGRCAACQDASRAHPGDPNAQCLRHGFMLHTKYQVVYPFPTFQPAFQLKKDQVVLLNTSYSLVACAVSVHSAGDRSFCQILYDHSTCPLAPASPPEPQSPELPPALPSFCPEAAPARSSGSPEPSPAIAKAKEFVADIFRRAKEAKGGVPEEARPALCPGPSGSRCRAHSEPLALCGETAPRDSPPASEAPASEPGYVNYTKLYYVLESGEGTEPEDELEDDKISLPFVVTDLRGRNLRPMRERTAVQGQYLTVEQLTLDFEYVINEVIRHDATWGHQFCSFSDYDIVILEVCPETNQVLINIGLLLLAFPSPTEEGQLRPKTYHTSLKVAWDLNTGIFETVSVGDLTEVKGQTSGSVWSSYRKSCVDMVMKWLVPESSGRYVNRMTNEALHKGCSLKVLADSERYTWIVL
- Sequence (Q14498 250-328 limits assumed): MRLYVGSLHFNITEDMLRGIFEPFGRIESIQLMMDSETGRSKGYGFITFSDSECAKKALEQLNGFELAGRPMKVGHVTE
- Sequence (Q16531 whole entry partner): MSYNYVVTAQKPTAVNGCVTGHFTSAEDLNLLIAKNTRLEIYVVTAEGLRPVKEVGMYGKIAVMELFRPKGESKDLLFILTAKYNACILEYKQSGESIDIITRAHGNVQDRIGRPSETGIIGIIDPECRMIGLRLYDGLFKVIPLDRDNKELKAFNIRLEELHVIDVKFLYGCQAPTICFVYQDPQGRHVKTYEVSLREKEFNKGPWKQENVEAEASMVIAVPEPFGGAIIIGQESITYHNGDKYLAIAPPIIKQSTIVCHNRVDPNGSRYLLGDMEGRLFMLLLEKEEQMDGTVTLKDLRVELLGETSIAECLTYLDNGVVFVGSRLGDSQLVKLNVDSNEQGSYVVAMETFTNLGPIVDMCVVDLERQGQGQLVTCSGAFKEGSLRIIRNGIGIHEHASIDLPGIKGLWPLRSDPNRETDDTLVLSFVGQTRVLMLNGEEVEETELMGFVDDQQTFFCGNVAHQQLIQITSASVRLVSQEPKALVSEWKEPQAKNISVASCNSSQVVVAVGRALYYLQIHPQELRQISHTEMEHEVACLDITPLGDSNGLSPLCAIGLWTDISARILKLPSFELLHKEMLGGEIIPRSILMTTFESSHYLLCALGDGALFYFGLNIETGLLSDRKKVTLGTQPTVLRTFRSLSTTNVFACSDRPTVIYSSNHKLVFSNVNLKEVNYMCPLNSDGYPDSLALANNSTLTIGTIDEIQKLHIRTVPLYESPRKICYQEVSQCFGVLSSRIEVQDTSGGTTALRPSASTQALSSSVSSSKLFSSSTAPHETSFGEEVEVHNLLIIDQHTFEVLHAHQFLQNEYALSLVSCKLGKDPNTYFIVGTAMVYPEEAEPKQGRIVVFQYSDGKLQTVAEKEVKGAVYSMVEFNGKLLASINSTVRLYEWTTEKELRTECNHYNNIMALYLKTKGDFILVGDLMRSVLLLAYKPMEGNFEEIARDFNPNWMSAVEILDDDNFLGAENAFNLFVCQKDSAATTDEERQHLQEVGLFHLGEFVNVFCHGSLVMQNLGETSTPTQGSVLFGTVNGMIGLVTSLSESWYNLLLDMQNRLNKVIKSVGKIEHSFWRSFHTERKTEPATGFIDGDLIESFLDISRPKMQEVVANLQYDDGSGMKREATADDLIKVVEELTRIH
- runDescription: Compound-induced DCAF15-RBM39 ternary complex formation, AlphaLISA
- Format: biochemical
- recordedConditions: AlphaLISA, His-tagged DCAF15 complex and biotin-carrying RBM39; read-out: Ternary-RBM39 (RRM2) EC50
- Protocol: Compound-induced DCAF15-RBM39 ternary complex formation was monitored using AlphaLISA® assays (Perkin Elmer, Waltham, MA). […] 9.8 ul of this protein mixture was then mixed with the compounds in the assay plate and incubated for one hour at room temperature. Reaction mixtures with no compounds added were included as negative controls, while a His-tagged and biotinylated GST protein was included to track general assay performance. […]
pEC50: −log10 of the molar value.
observedProperty: pEC50

See these solved cases before continuing.
- compound: "O=C(CCCNS(=O)(=O)c1ccc(S(=O)(=O)Nc2ccc(Cl)c3c(Cl)c[nH]c23)cc1)N1CCCC1"
  pEC50: "> 6.00"
- compound: "CN1CC(NS(=O)(=O)c2ccc(S(=O)(=O)Nc3ccc(Cl)c4c(Cl)c[nH]c34)cc2)CCC1=O (stereo not shown)"
  pEC50: "> 6.00"
- compound: "Cn1cc(-c2ccc(S(=O)(=O)Nc3ccc(Cl)c4c(Cl)c[nH]c34)cc2)cn1"
  pEC50: "> 5.30"

DCAF15-RBM39 ternary complex (Homo sapiens, UniProt Q14498+Q66K64) / pEC50 / CCCN(c1ccc(S(=O)(=O)Nc2ccc(Cl)c3c(Cl)c[nH]c23)cc1)S(=O)(=O)N1CCNCC1 : value?
> 6.00

DCAF15-RBM39 ternary complex (Homo sapiens, UniProt Q14498+Q66K64) / pEC50 / O=S(=O)(Nc1ccc(Cl)c2c(Cl)c[nH]c12)c1ccc(S(=O)(=O)N2CCc3[nH]c(-c4ccccc4)nc3C2)cc1 : value?
> 5.30

DCAF15-RBM39 ternary complex (Homo sapiens, UniProt Q14498+Q66K64) / pEC50 / CCCN(C(=O)CN)c1ccc(S(=O)(=O)Nc2ccc(Cl)c3c(Cl)c[nH]c23)cc1 : value?
> 6.00

DCAF15-RBM39 ternary complex (Homo sapiens, UniProt Q14498+Q66K64) / pEC50 / O=S(=O)(Nc1ccc(Cl)c2cc[nH]c12)c1ccc(S(=O)(=O)N2CCNCC2)cc1 : value?
> 5.30

====

- systemName: DCAF15-RBM39 ternary complex (Homo sapiens, UniProt Q14498+Q66K64)
- Construct: (RRM2)
- runDescription: Compound-induced DCAF15-RBM39 ternary complex formation, AlphaLISA
- Format: biochemical
- recordedConditions: AlphaLISA, His-tagged DCAF15 complex and biotin-carrying RBM39; read-out: Ternary-RBM39 (RRM2) EC50
observedProperty: EC50

See these solved cases before continuing.
- compound: "O=S(=O)(Nc1ccc(Cl)c2c(Cl)c[nH]c12)c1ccc(S(=O)(=O)NC2CCNCC2)cc1 [Compound 29]"
  observedProperty: "EC50"
  measured: "< 1000 nM"
- compound: "NCCCCCCCNS(=O)(=O)c1ccc(S(=O)(=O)Nc2ccc(Cl)c3c(Cl)c[nH]c23)cc1 [Compound 8]"
  observedProperty: "EC50"
  measured: "< 1000 nM"
- compound: "Cc1ccc(NS(=O)(=O)c2ccc(S(=O)(=O)N3CCN(C4COC4)CC3)cc2)c2[nH]cc(C#N)c12 [Compound 86]"
  observedProperty: "EC50"
  measured: "< 1000 nM"
- compound: "Cc1ccc(NS(=O)(=O)c2ccc(S(=O)(=O)N(C)C3CCNCC3)cc2)c2[nH]cc(C#N)c12 [Compound 78]"
  observedProperty: "EC50"
  measured: "< 1000 nM"
- compound: "O=S(=O)(Nc1ccc(Cl)c2c(Cl)c[nH]c12)c1ccc(S(=O)(=O)NC2CCc3ccccc32)cc1 (centres unmarked) [Compound 34]"
  observedProperty: "EC50"
  measured: "< 20000 nM"

Request the reported EC50 associated with O=S(=O)(NCCCOCc1ccccc1)c1ccc(S(=O)(=O)Nc2ccc(Cl)c3c(Cl)c[nH]c23)cc1 [Compound 5]
< 20000 nM

Request the reported EC50 associated with CC1CN(S(=O)(=O)c2ccc(S(=O)(=O)Nc3ccc(Cl)c4c(Cl)c[nH]c34)cc2)CCN1 (centres unmarked) [compound 109]
< 1000 nM

Request the reported EC50 associated with O=C1NCCCCC1NS(=O)(=O)c1ccc(S(=O)(=O)Nc2ccc(Cl)c3c(Cl)c[nH]c23)cc1 (centres unmarked) [Compound 33]
< 1000 nM

Request the reported EC50 associated with Cc1ccc(NS(=O)(=O)c2ccc(S(=O)(=O)N3CCC(N(C)C)C3)cc2)c2[nH]cc(C#N)c12 (centres unmarked) [Compound 80]
< 1000 nM

Request the reported EC50 associated with O=S(=O)(Nc1ccc(Cl)c2c(Cl)c[nH]c12)c1cccc(Br)c1 [Compound 76]
< 5000 nM

Request the reported EC50 associated with O=S(=O)(NCCOCC1CC1)c1ccc(S(=O)(=O)Nc2ccc(Cl)c3c(Cl)c[nH]c23)cc1 [Compound 6]
< 5000 nM
